Data credit: the supplement of paper PMC11417369

test system: PfAP2-LT AP2 domain (GST-tagged); test: gcPBM binding intensity (ln(normalized median fluorescence intensity)); higher = stronger DNA binding
In all, about 25,000 sequences were measured (“ln(normalized median fluorescence intensity)”: median about 8.9, highest 2% from about 10 on). This is one part of a sample in which the highest values are shown more often than they occur.
The label depends only on gcPBM binding intensity (ln): criterion met if it is at least 10, criterion not met if it is smaller.

1) TTTTGTTGATTTATATCTGTAGGGTTTAATATAACA [XGTACX_negctrl_site174]; criterion not met
2) AAAAATTAAAAGAAAATACACACCTGTGGGTGCTTA [CACACA_site1988]; criterion not met
3) GCATAAATCAAACACACACACATATATATATATATA [CACACA_site2422]; criterion met
4) AACAGACATACATACACACATACATACAGACATACA [CACACA_site1942]; criterion not met
5) AAAAAAAAAAAAAACACACACATACAGACAAAAATG [CACACA_site83]; criterion not met
6) AAAAAAAAAAAAAAAACATGCAGTTAGTGGTTTTTT [TGCATGCA_site243]; criterion not met
